- experimental-system: EIF2C2/Ago2 PAZ domain (Ago2PAZ) (Homo sapiens)
- Construct: PAZ domain, residues 226-379, hexahistidine tag (pQE30, BamHI/HindIII), tag removal not mentioned; expressed in E. coli; Talon and Sephacryl S200HR
- Sequence (Q9UKV8 227-379): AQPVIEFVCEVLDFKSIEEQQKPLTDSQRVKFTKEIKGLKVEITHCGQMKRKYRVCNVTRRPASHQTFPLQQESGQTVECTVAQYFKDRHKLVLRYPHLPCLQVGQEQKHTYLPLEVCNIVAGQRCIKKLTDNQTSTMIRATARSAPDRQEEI
- protocol-summary: isothermal titration calorimetry
- Assay type: binding
- study-conditions: read-out: Kd /
Attribute: Kd
quantity-name: Kd (µM)

{"smiles-notation": "Cc1cn([C@H]2C[C@H](O)[C@@H](COP(=O)(O)O)O2)c(=O)[nH]c1=O", "quantity-name": "Kd", "display-unit": "µM", "number": 232}
{"smiles-notation": "Nc1ccn([C@@H]2O[C@H](COP(=O)(O)O)[C@@H](O)[C@H]2O)c(=O)n1", "quantity-name": "Kd", "display-unit": "µM", "number": 40}
{"smiles-notation": "Nc1nc2c(ncn2[C@H]2C[C@H](O)[C@@H](COP(=O)(O)O)O2)c(=O)[nH]1", "quantity-name": "Kd", "display-unit": "µM", "number": 40}
{"smiles-notation": "Nc1nc2c(ncn2[C@@H]2O[C@H](COP(=O)(O)O)[C@@H](O)[C@H]2O)c(=O)[nH]1", "quantity-name": "Kd", "display-unit": "µM", "number": 22}

All values here come from paper PMC4008379.
